Assign pIC50 to each entry below.
pIC50 here: minus log base 10 of the concentration, concentration in moles per litre.

Query: For UniProtKB P14842, provide pIC50 of OCCCN1CC=C(c2cn(-c3ccc(F)cc3)c3ccc(F)cc23)CC1 [Lu 23-175] please.
Sequence (P14842 whole entry): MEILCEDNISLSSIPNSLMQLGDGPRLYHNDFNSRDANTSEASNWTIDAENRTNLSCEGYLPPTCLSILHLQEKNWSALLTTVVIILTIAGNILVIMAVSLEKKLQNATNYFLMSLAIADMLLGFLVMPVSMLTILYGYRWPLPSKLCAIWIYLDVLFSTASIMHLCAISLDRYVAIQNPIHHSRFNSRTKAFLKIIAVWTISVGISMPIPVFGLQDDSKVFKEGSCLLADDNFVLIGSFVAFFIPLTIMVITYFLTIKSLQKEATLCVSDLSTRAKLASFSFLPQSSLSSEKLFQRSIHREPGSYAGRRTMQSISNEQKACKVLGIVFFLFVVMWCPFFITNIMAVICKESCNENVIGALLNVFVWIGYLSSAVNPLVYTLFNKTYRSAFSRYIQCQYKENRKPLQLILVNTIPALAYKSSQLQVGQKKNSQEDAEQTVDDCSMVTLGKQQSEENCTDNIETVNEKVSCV
Result: 8.17

Query: For UniProtKB P14842, provide pIC50 of Fc1ccc(-n2cc(N3CCNCC3)c3cc(C(F)(F)F)ccc32)cc1 [Lu 21-153] please.
Result: 8.17

Query: For UniProtKB P14842, provide pIC50 of O=[N+]([O-])c1ccc2c(c1)c(C1=CCN(CCO)CC1)cn2-c1ccc(F)cc1 [Lu 23-150] please.
Result: 8.00

Query: For UniProtKB P14842, provide pIC50 of O=C1NCCN1CCN1CC=C(c2cn(-c3ccc(F)cc3)c3ccc([N+](=O)[O-])cc23)CC1 [Lu 23-142] please.
Result: 8.17

Query: For UniProtKB P14842, provide pIC50 of CN1CC=C(c2cn(-c3ccsc3)c3ccc(Cl)cc23)CC1.O=C(O)/C=C\C(=O)O [Lu 24-001, maleate] please.
Result: 8.06
